# % residual binding per entry
- target_entity: T1, biotinylated CD32bECDHis (human, UniProt P31994 43-223, limits assumed, biotinylated (sites not given))
- T1 sequence (looked up): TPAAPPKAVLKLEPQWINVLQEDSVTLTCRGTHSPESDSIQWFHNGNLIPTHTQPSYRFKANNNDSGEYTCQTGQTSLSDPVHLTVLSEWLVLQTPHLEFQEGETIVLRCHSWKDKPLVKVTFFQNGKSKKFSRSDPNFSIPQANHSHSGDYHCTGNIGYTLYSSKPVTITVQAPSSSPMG
- test_name: competition ELISA, competitor 034
Your answer should be a plain number; it is taken to be in %.

Some solved cases for reference:
Need % residual binding, item Antibody 063 (antibody, human IgG1, V domains shown, Human antibody; also called HuMab 063) VH: EVQLLESGGGLVQPGGSLRLSCAASGFTFSSYAMSWVRQAPGKGLEWVSAISDSGGSTYYADSVKGRFTISRDNSKNTLYLQMNSLRAEDTAAYYCAKEIAVALFDYWGQGTLVTVSS VL: EIVLTQSPATLSLSPGERATLSCRASQSVSSYLAWYQQKPGQAPRLLIYDASNRATGIPARFSGSGSGTDFTLTISSLEPEDFAVYYCQQRSSWPPYTFGQGTKLEIKR
8

// query % residual binding value for entry Antibody 028 (antibody, V domains shown, List 1 gives no VL for antibody 028; The VL is therefore uncertain; also called HuMab 028) VH: QVQVVQSGAEVKKPGASVKVSCKTSGYTFTSYGISWVRQAPGQGLEWMGWISAYNGNTKYAQKLQGRLTMTTDTSTTTAYMELRSLRSDDTAVYYCARDSAAHGMDVWGQGTTVSVSS VL: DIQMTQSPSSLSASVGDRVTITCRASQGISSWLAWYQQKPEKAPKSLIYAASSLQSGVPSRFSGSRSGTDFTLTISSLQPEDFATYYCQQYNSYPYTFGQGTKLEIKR
2

---
Any idea what % residual binding was measured for Antibody 020 (antibody, V domains shown, also called HuMab 020) VH: QVQLVQSGGEVKKPGASVKVSCKTSGYTFTSYGISWVRQAPGQGLEWMGWISAYNGNTKYAQKLQGRLTMTTDTSTTTAYMELRSLRSDDTAVYYCARDSAAHGMDVWGQGTTVTVSS VL: DIQMTQSPSSLSASVGDRVTITCRASQGISSWLAWYQQKPEKAPKSLIYAASSLQSGVPSRFRGSGSGTDFTLTISSLQPEDFATYYCQQYNSYPYTFGQGTKLEIKR ?
1

Where do the numbers come from? From patent US20110038869A1.
